B1: ZNF207 (parent)
chain: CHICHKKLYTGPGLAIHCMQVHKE

Variants of: B1
test-protocol: protein stability index of a GFP-peptide fusion (GPS, HEK-293T) (PSI 1-6); higher = more stable;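 also: lentivirally expressed fusions sorted by FACS into six bins by GFP to DsRed ratio, PSI derived from sequencing read proportions per bin multiplied by bin number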
condition-info: c terminus: a fixed tail appended
property-name: protein stability index

For the variant shown here, G11N , give the reported protein stability index.
3.59

# repeat for H2G
3.31

# repeat for C18M
2.47

# repeat for K7S
3.66

# repeat for M19F
3.75

# repeat for K23P
3.04

# repeat for E24D
2.84

# repeat for H17V
3.01

# repeat for Q20G
3.13

# repeat for K7I
3.73

# repeat for V21N
3.48

# repeat for H5K
2.55

# repeat for Y9V
3.19
